Dear all, I have gathered published IC50 values for Prothrombin (Homo sapiens, UniProt P00734); the list follows.
experimental-readout: IC50 (nM)

>>> assay_value("CC(C)CNC(=O)c1ccc(-c2ccc(C=CCO)cc2C(=O)Nc2ccc(C(=N)N)cc2)c(C(=O)O)c1")
22700
>>> assay_value("CC[C@@H](C)[C@@H](NC(C)C(F)F)C(=O)N1C[C@@](C)(O)C[C@H]1C(=O)NCc1ccc2c(N)nccc2c1 (stereo partly drawn)")
3630
>>> assay_value("CC(=O)[C@H](CCCN=C(N)N)NC(=O)[C@@H]1CCCN1C(=O)[C@H](N)CC1CCCCC1")
410
>>> assay_value("N=C(N)NCCC[C@H](NC(=O)[C@@H](CC1CCCCC1)NCC(=O)O)C(=O)NCc1ccc(C(=N)N)cc1")
1300
>>> assay_value("CCO[C@@H]1[C@@H](NC(=O)C2CC3CCC(O)CC3N2C(=O)[C@@H](Cc2ccc(O)cc2)NC(=O)[C@H](O)Cc2ccc(O)cc2)CCCN1C(=N)N (stereo partly drawn)")
13200
>>> assay_value("CCS(=O)(=O)N[C@H](CC1CCCCC1)C(=O)N1CCC[C@H]1C(=O)N[C@@H](CC1CCNCC1)C(=O)c1nccs1")
120
>>> assay_value("CS(=O)(=O)N1CCN(CC(=O)N[C@@H](CCCN=C(N)N)C(=O)c2nccs2)C(=O)[C@H]1Cc1ccccc1")
2000
